ASSAYED_SYSTEM: T1, canine OX40L, full length membrane form, expressed on HEK293 cells (canine)
T1 chain: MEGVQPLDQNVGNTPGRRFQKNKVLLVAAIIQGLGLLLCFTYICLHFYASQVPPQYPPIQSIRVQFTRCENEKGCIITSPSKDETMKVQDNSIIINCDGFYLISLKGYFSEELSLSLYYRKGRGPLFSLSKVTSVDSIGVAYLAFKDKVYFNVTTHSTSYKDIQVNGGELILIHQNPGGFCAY
METHOD_DESCRIPTION: cell-based or functional assay
MEASUREMENT_LABEL: % Signal Inhibition Rep2 (%)
Provide only the numeric value, understood in %.

Exercise: Name the reported % Signal Inhibition Rep2 value associated with the binder PMX099 (antibody, V domains shown) VH: EVQLVESGGDLVRPGGSLRLSCVASGFTFSSYHMNWVRQAPGKGLQWVAFINSGGSSTTYADVVRGRFTISRDYAKNTLYLQMNSLRAEDTAVYYCASGSIWTHFDYWGQGTLVTVSS VL: SFVLTQLPSVSVTLRQTARITCGGDSIGTKSVYWYQQKLGQAPVLIIYRDSNRPTGIPERFSGASSGNTATLTISGALAEDEADYYCQVWDSSNKAMFGGGTHLTVL
Solution: 32.7

Exercise: Name the reported % Signal Inhibition Rep2 value associated with the binder PMX100 (antibody, V domains shown) VH: EVQLVESGGDLVRPGGSLRLSCVASGFTFSSYHMSWVRQAPGKGLQWVAFINSGGSSTTYADVVRGRFTISRDYAKNTLYLQMNSLRAEDTAVYYCASGSIWTHFDYWGQGTLVTVSS VL: SFVLTQLPSVSVTLRQTARITCGGDSIGSKSVYWYQQRLGQAPVLIIYRDSNRPTGIPERFSGASSGNTATLTISGALAEDEADYYCQVWDNSNKAMFGGGTHLTVL
Solution: 28.1

Exercise: Name the reported % Signal Inhibition Rep2 value associated with the binder PMX057 (antibody, V domains shown, also called PMX57) VH: EVQLVESGGDLVKPEGSLRLSCVVSGFTFNNYGMSWVRQAPGKGLQWVAYISIDGRSTSYTDAVKGRFTISRDNAKNTLYLHINSLRTEDTAVYYCTKLGRGFTFGYWGQGTLVTVSS VL: SYVLTQLPSKNVTLKQPAHITCGGDNIGSKSVHWYQQKLGQAPALIIYYDSSRPTGIPERFSGANSGNTATLTISGALAEDEADYYCQVWDSSVSVFGGGTHLTVL
Solution: 72
